These measurements were taken from patent US8729269B2.

Each record here notes measured MIC.
Test system: Methicilin resistant Staphylococcus epidermidis 118 (MRSE 118)
Experiment: Minimum Inhibitory Concentration (MIC) determination, agar dilution
Type: cell-based
Conditions: Mueller Hinton agar, 24 hrs at 35° C.
Respond numerically; units are µg/mL and should not be typed.

compound=CC(=O)NC[C@H]1CN(c2ccc(N3CCC(F)(CNC(C)=O)CC3)c(F)c2)C(=O)O1 property_name=MIC measured=2

Given the compound "CC(=O)NC[C@H]1CN(c2ccc(N3CCC(F)(CO)CC3)c(F)c2)C(=O)O1" , what is its reported MIC?
0.5

###

Each record here notes measured log10 MIC.
System: Streptococcus pneumoniae 49619 (SPN 49619)
Assay: Minimum Inhibitory Concentration (MIC) determination, agar with 5% sheep blood
Assay type: cell-based
Details: Mueller Hinton agar containing 5% sheep blood
Method: Overnight grown cultures of Methicilin resistant Staphylococcus aureus 32 (MRSA 32), Methicilin resistant Staphylococcus epidermidis 118 (MRSE 118), Vancomycin resistant enterococci 303 (VRE 303) in Tryptic Soya broth were diluted in Mueller Hinton Broth to give optical density matching with MacFarland tube 0.5 standard. Cultures were further diluted 1:10 in Mueller Hinton broth. […] These plates were incubated for 24 hrs at 35° C. and MIC results recorded. […]
Log scale reminder: MIC in µg/mL, then log10 taken.

Given the molecule "CC(=O)NC[C@H]1CN(c2ccc(N3CCC(F)(CI)CC3)c(F)c2)C(=O)O1" , what is its reported log10 MIC?
0.00

Given the molecule "CS(=O)(=O)OC[C@H]1CN(c2ccc(N3CCC4(CC3)COCO4)c(F)c2)C(=O)O1" , what is its reported log10 MIC?
0.90

Given the molecule CC(=O)NC[C@H]1CN(c2ccc(N3CCOCC3)c(F)c2)C(=O)O1 [Linezolid, reference compound] , what is its reported log10 MIC?
0.30

Given the molecule "CC(=O)NC[C@H]1CN(c2ccc(N3CCC4(CC3)C[C@H]4C#N)c(F)c2)C(=O)O1" , what is its reported log10 MIC?
0.00

Given the molecule CC(=O)NC[C@H]1CN(c2ccc(N3CCC4(CC3)CC4C#N)c(F)c2)C(=O)O1 (mixture of isomers) , what is its reported log10 MIC?
0.30

Given the molecule "CC(=O)NC[C@H]1CN(c2ccc(N3CCC(O)(CN=[N+]=[N-])CC3)cc2)C(=O)O1" , what is its reported log10 MIC?
0.60

Given the molecule CC(=O)NC[C@H]1CN(c2ccc(N3CCC4(OCCO4)C(F)C3)c(F)c2)C(=O)O1 (stereo partly shown) , what is its reported log10 MIC?
0.30

Given the molecule "CC(=O)NC[C@H]1CN(c2ccc(N3CCC(F)(CC#N)CC3)c(F)c2)C(=O)O1" , what is its reported log10 MIC?
-0.30

Given the molecule "CC(=O)NC[C@H]1CN(c2ccc(N3CCC(O)(CC#N)CC3)c(F)c2)C(=O)O1" , what is its reported log10 MIC?
0.00

###

Each record here notes measured MIC.
Test system: Streptococcus pyogenes 801 (SPY 801)
Experiment: Minimum Inhibitory Concentration (MIC) determination, agar with 5% sheep blood
Type: cell-based
Settings: Mueller Hinton agar containing 5% sheep blood
Respond numerically; units are µg/mL and should not be typed.

compound=CC(=O)NC[C@H]1CN(c2ccc(N3CCC(C)(F)CC3)c(F)c2)C(=O)O1 target_or_test_system="Streptococcus pyogenes 801 (SPY 801)" property_name=MIC unit_annotation=µg/mL measured=2
compound=CC(=O)NC[C@H]1CN(c2ccc(N3CCC4(CC3)COCCCO4)c(F)c2)C(=O)O1 target_or_test_system="Streptococcus pyogenes 801 (SPY 801)" property_name=MIC unit_annotation=µg/mL measured=4
compound=CC(=O)NC[C@H]1CN(c2ccc(N3CCC(F)(CN=[N+]=[N-])CC3)c(F)c2)C(=O)O1 target_or_test_system="Streptococcus pyogenes 801 (SPY 801)" property_name=MIC unit_annotation=µg/mL measured=2
compound="CC(=O)NC[C@H]1CN(c2ccc(N3CCC4(CC3)CC4C#N)cc2)C(=O)O1 (mixture of isomers)" target_or_test_system="Streptococcus pyogenes 801 (SPY 801)" property_name=MIC unit_annotation=µg/mL measured=4
compound=CC(=O)NC[C@H]1CN(c2ccc(N3CCC(O)(CN=[N+]=[N-])CC3)c(F)c2)C(=O)O1 target_or_test_system="Streptococcus pyogenes 801 (SPY 801)" property_name=MIC unit_annotation=µg/mL measured=2

Given the compound CC(=O)NC[C@H]1CN(c2ccc(N3CCC4(OCCO4)C(F)C3)c(F)c2)C(=O)O1 (stereo partly shown) , what is its reported MIC?
2

Given the compound "CC(=O)NC[C@H]1CN(c2ccc(N3CCC4(CC3)C[C@H]4C#N)c(F)c2)C(=O)O1" , what is its reported MIC?
1

Given the compound "COCC1(O)CCN(c2ccc(N3C[C@H](CNC(C)=O)OC3=O)cc2F)CC1" , what is its reported MIC?
2

Given the compound "CC(=O)NC[C@H]1CN(c2ccc(N3CCC(O)(CN=[N+]=[N-])CC3)cc2)C(=O)O1" , what is its reported MIC?
4

Given the compound "CS(=O)(=O)OC[C@H]1CN(c2cc(F)c(N3CCC4(CC3)OCCO4)c(F)c2)C(=O)O1" , what is its reported MIC?
4

Given the compound "CC(=S)NC[C@H]1CN(c2ccc(N3CCC(C#N)(Nc4ccc(C#N)cc4)CC3)c(F)c2)C(=O)O1" , what is its reported MIC?
0.8

Given the compound "CC(=O)NC[C@H]1CN(c2ccc(N3CCC(O)(C#N)CC3)c(F)c2)C(=O)O1" , what is its reported MIC?
8

###

Test system: Streptococcus pyogenes 801 (SPY 801)
Assay: Minimum Inhibitory Concentration (MIC) determination, agar with 5% sheep blood
Assay type: cell-based
Conditions: Mueller Hinton agar containing 5% sheep blood
Property name: MIC (µg/mL)
Respond numerically; units are µg/mL and should not be typed.

Below, 3 compounds whose answers are already recorded.
compound="CS(=O)(=O)OC[C@H]1CN(c2cc(F)c(N3CCC(=O)CC3)c(F)c2)C(=O)O1 [Example 169]" target_or_test_system="Streptococcus pyogenes 801 (SPY 801)" property_name=MIC unit_annotation=µg/mL measured=2
compound="CC(=O)NC[C@H]1CN(c2ccc(N3CCOCC3)c(F)c2)C(=O)O1 [Linezolid, reference compound]" target_or_test_system="Streptococcus pyogenes 801 (SPY 801)" property_name=MIC unit_annotation=µg/mL measured=2
compound="CC(=O)NC[C@H]1CN(c2cc(F)c(N3CCC4(CC3)OCCO4)c(F)c2)C(=O)O1 [Example 130]" target_or_test_system="Streptococcus pyogenes 801 (SPY 801)" property_name=MIC unit_annotation=µg/mL measured=2

API: the following record is the query input.
Given the compound CC(=O)NC[C@H]1CN(c2ccc(N3CCC(O)(CC#N)CC3)c(F)c2)C(=O)O1 [Example 21] , what is its reported MIC?
1

###

Test system: Methicilin resistant Staphylococcus epidermidis 118 (MRSE 118)
Assay: Minimum Inhibitory Concentration (MIC) determination, agar dilution
Type: cell-based
Conditions: Mueller Hinton agar, 24 hrs at 35° C.
Could you please mark Yes for values of MIC below 2 µg/mL and No for values at or above it?

Take a look at these entries with their results.
compound="CC(=O)NC[C@H]1CN(c2ccc(N3CCC4(CC3)NCC[S+]4[O-])c(F)c2)C(=O)O1 (stereo partly drawn) [Example 112]" classification=Yes
compound="CC(=O)NC[C@H]1CN(c2ccc(N3CCC(F)(CI)CC3)c(F)c2)C(=O)O1 [Example 15]" classification=Yes
compound="CC(=O)NC[C@H]1CN(c2ccc(N3CCC(F)(F)CC3)c(F)c2)C(=O)O1 [Example 16]" classification=Yes

Dear colleague, could you confirm whether MIC of CS(=O)(=O)NCC1CN(c2ccc(N3CCC(O)(CN=[N+]=[N-])CC3)c(F)c2)C(=O)O1 (stereo in doubt) [Example 40] falls below 2 µg/mL? Thanks.
No

Dear colleague, could you confirm whether MIC of CC(=O)NC[C@H]1CN(c2ccc(N3CCC(F)(CNS(C)(=O)=O)CC3)c(F)c2)C(=O)O1 [Example 7] falls below 2 µg/mL? Thanks.
Yes

Dear colleague, could you confirm whether MIC of CC(=O)NC[C@H]1CN(c2ccc(N3CCC4(CC3)CC4C#N)c(F)c2)C(=O)O1 (mixture of isomers) [Example 97] falls below 2 µg/mL? Thanks.
Yes

Dear colleague, could you confirm whether MIC of COCC1(F)CCN(c2ccc(N3C[C@H](CNC(C)=O)OC3=O)cc2F)CC1 [Example 10] falls below 2 µg/mL? Thanks.
Yes

Dear colleague, could you confirm whether MIC of CC(=O)NC[C@H]1CN(c2ccc(N3CCC(O)(CC#N)CC3)c(F)c2)C(=O)O1 [Example 21] falls below 2 µg/mL? Thanks.
Yes

###

System: Streptococcus pneumoniae 49619 (SPN 49619)
Assay: Minimum Inhibitory Concentration (MIC) determination, agar with 5% sheep blood
Assay type: cell-based
Conditions: Mueller Hinton agar containing 5% sheep blood
Each record here notes measured MIC.
Respond numerically; units are µg/mL and should not be typed.

chem_smiles=CC(=O)NC[C@H]1CN(c2cc(F)c(N3CCC4(CC3)OCCO4)c(F)c2)C(=O)O1 property_name=MIC unit_annotation=µg/mL measured=2
chem_smiles=CS(=O)(=O)OC[C@H]1CN(c2cc(F)c(N3CCC(O)CC3)c(F)c2)C(=O)O1 property_name=MIC unit_annotation=µg/mL measured=2
chem_smiles=CC(=O)NC[C@H]1CN(c2ccc(N3CCC4(CC3)COCCO4)c(F)c2)C(=O)O1 property_name=MIC unit_annotation=µg/mL measured=4
chem_smiles=COCC1(F)CCN(c2ccc(N3C[C@H](CNC(C)=O)OC3=O)cc2F)CC1 property_name=MIC unit_annotation=µg/mL measured=2

What is its MIC for Streptococcus pneumoniae 49619 (SPN 49619)? Entry: "CCOCC1(F)CCN(c2ccc(N3C[C@H](CNC(C)=O)OC3=O)cc2F)CC1"
2
